Measured growth inhibition by item
# Tested on: HNSC
# TEST DETAILS: growth inhibition (% activity, log2 RLU normalised to DMSO / staurosporine); higher = more growth inhibition
# TEST CONDITIONS: 33 µM
# value in %; strip the unit string

Below, 5 compounds whose answers are already recorded.
>>> number("CC(C)c1nc(CN(C)C(=O)N[C@@H](CCN2CCOCC2)C(=O)N[C@H](CC[C@H](Cc2ccccc2)NC(=O)OCc2cncs2)Cc2ccccc2)cs1")
1.95
>>> number("O=C1O[C@H]([C@@H](O)CO)C(O)=C1O")
2.06
>>> number("O=C[C@H](O)[C@@H](O)[C@H](O)CO")
0.405
>>> number("N#Cc1c(N(CC(=O)O)CC(=O)O)sc(C(=O)O)c1CC(=O)O")
27.7
>>> number("CN1CCC(=C2c3ccccc3CC(=O)c3sccc32)CC1")
1.53

Challenge: Give growth inhibition (HNSC) of the following compound: CC1Cc2ccccc2N1NC(=O)c1ccc(Cl)c(S(N)(=O)=O)c1 (stereo unspecified)
Response given: -4.15

Challenge: Give growth inhibition (HNSC) of the following compound: CCCC(=O)[O-].[Na+]
Response given: -2.84

Challenge: Give growth inhibition (HNSC) of the following compound: N#C[C@@H]1CCCN1C(=O)CNC12CC3CC(CC(O)(C3)C1)C2
Response given: 14.2

* * *

# System: DIPGX29 (H3.3 K27M diffuse intrinsic pontine glioma line)
# TEST DETAILS: growth inhibition (% activity, log2 RLU normalised to DMSO / staurosporine); higher = more growth inhibition
# TEST CONDITIONS: 33 µM
Measured growth inhibition by item
Number plus unit, in that order.

Below, 6 molecules whose answers are already recorded.
>>> result("CCCCCCCCCCCCCCCC(=O)O[C@@H]1[C@@H](O)[C@@H](O)[C@@H]([C@H](NC(=O)[C@@H]2C[C@@H](CCC)CN2C)[C@H](C)Cl)O[C@@H]1SC")
"0.38%"
>>> result("O=C([O-])CC(O)(CC(=O)[O-])C(=O)[O-].O=C([O-])CC(O)(CC(=O)[O-])C(=O)[O-].[Bi+3].[K+].[K+].[K+].[K+].[K+]")
"-1.08%"
>>> result("CCC(=O)OCC(=O)[C@@]1(OC(=O)CC)[C@@H](C)C[C@H]2[C@@H]3CCC4=CC(=O)C=C[C@]4(C)[C@@]3(F)[C@@H](O)C[C@@]21C")
"0.0157%"
>>> result("CN1CCN(C2=Nc3cc(Cl)ccc3Nc3ccccc32)CC1")
"3.8%"
>>> result("Nc1cccc2c1C(=O)N(C1CCC(=O)NC1=O)C2=O (stereo unspecified)")
"0.275%"
>>> result("COCCCOc1cc(C[C@@H](C[C@H](N)[C@@H](O)C[C@H](C(=O)NCC(C)(C)C(N)=O)C(C)C)C(C)C)ccc1OC")
"2.63%"

Challenge: State the recorded growth inhibition for this entry: COc1cc(C)c(/C=C/C(C)=C/C=C/C(C)=C/C(=O)O)c(C)c1C
Response given: 5.2%

Challenge: State the recorded growth inhibition for this entry: NC(Cc1cc(I)c(Oc2cc(I)c(O)c(I)c2)c(I)c1)C(=O)O (stereo unspecified)
Response given: 0.479%

Challenge: State the recorded growth inhibition for this entry: C=C[C@H]1CN2CC[C@H]1C[C@H]2[C@H](O)c1ccnc2ccc(OC)cc12
Response given: 2.06%

Challenge: State the recorded growth inhibition for this entry: C[N+]1(C)CCC(=C(c2ccccc2)c2ccccc2)CC1
Response given: 1.61%

Challenge: State the recorded growth inhibition for this entry: O=C(CCCN1CCC(O)(c2ccc(Cl)cc2)CC1)c1ccc(F)cc1
Response given: 0.532%

Challenge: State the recorded growth inhibition for this entry: CCCCCOC(=O)Nc1nc(=O)n([C@@H]2O[C@H](C)[C@@H](O)[C@H]2O)cc1F
Response given: -0.544%

Challenge: State the recorded growth inhibition for this entry: O=C(O)c1ccccc1
Response given: -1.57%

Challenge: State the recorded growth inhibition for this entry: CCCOc1ccc2[nH]c(NC(=O)OC)nc2c1
Response given: 6.12%

Challenge: State the recorded growth inhibition for this entry: Nc1nc2ccc(OC(F)(F)F)cc2s1
Response given: 2.99%

Challenge: State the recorded growth inhibition for this entry: CN(C/C=C/c1ccccc1)Cc1cccc2ccccc12
Response given: 1.23%

Challenge: State the recorded growth inhibition for this entry: CC(C)[N+]1(C)[C@@H]2CC[C@H]1C[C@@H](OC(=O)C(CO)c1ccccc1)C2 (stereo partly specified)
Response given: -0.758%

Challenge: State the recorded growth inhibition for this entry: Cc1ncc([N+](=O)[O-])n1CCO
Response given: -0.678%

Challenge: State the recorded growth inhibition for this entry: O=C(Oc1ccccc1C(=O)O)c1ccccc1O
Response given: -4.53%

Challenge: State the recorded growth inhibition for this entry: O=C(C1CCCCC1)N1CC(=O)N2CCc3ccccc3C2C1 (stereo unspecified)
Response given: 0.382%

Challenge: State the recorded growth inhibition for this entry: Nc1nc2[nH]cc(CCc3ccc(C(=O)N[C@@H](CCC(=O)O)C(=O)O)cc3)c2c(=O)[nH]1
Response given: 1.3%

Data credit: the supplement of paper PMC8253809
